- Experimental details: in vitro
- Assay setup: human, hela cells, % viability
Listed below: viability at 28.5 h, 10 µM values for each entry.
# number only, unit % dropped from output

{"Compound": "Cc1cc(C(=O)NC2(C#N)CCSCC2)n(C)n1 [CBK306386]", "Scale unit": "%", "viability at 28.5 h, 10 µM": 90.9}
{"Compound": "Cc1ccc(S(=O)(=O)c2ccc(C)c(S(=O)(=O)N3CCOCC3)c2)cc1S(=O)(=O)N1CCOCC1 [CBK261677]", "Scale unit": "%", "viability at 28.5 h, 10 µM": 94.1}
{"Compound": "CCOC(=O)c1ccccc1OC(=O)c1ccc2c(c1)C1C=CCC1C(C(=O)O)N2 (stereo not drawn) [CBK265155]", "Scale unit": "%", "viability at 28.5 h, 10 µM": 101}
{"Compound": "CC1(C)C/C(=N/O)c2cc3c(nc2C1)CC(C)(C)C/C3=N\\O [CBK261629]", "Scale unit": "%", "viability at 28.5 h, 10 µM": 106}
{"Compound": "Cc1ccc(S(=O)(=O)Nc2ccc(C(=O)O)cc2)cc1[N+](=O)[O-] [CBK034055]", "Scale unit": "%", "viability at 28.5 h, 10 µM": 94.8}
{"Compound": "CN(c1cccc(C#N)c1)C1CCN(c2ncnc3c2cnn3C)C1 (stereo not drawn) [CBK304720]", "Scale unit": "%", "viability at 28.5 h, 10 µM": 87.4}
{"Compound": "Cc1cc(C=O)c(C)n1-c1ccc(Oc2ccc([N+](=O)[O-])cn2)cc1 [CBK264167]", "Scale unit": "%", "viability at 28.5 h, 10 µM": 99.9}
{"Compound": "CC(C)Cn1c(=O)c(C(=O)Nc2ccccc2S(N)(=O)=O)c(O)c2ccccc21 [CBK262290]", "Scale unit": "%", "viability at 28.5 h, 10 µM": 93.1}

Problem: Param item = Cn1c(SCC(=O)Nc2ccc(Oc3ccc(Cl)cc3)cc2)nnc1-c1ccncc1 [CBK269654] ; retrieve measured viability at 28.5 h, 10 µM.
Solution: 95.6

====

As shown below, each of these compounds has a reported viability at 28.5 h, 10 µM value.
- Experimental details: in vitro
- Assay setup: human, hela cells, % viability
Reply numerically in %, unit not repeated.

{"Compound": "Cn1ccnc1C1(O)C2CCCC1CN(CC1CCCCC1)C2 (stereo not shown)", "viability at 28.5 h, 10 µM (%)": 91.5}

Problem: Given the entry Cc1ccc(S(=O)(=O)c2ccc(C)c(S(N)(=O)=O)c2)cc1S(N)(=O)=O , report its measured viability at 28.5 h, 10 µM.
Solution: 83.6

Problem: I'd like to know its viability at 28.5 h, 10 µM. The compound in question is Cc1cc(C)c2c(N)c(C(=O)Nc3ccc(C(=O)O)cc3)sc2n1
Solution: 100

Problem: Reported viability at 28.5 h, 10 µM, compound O=C(Nc1cccc(O)c1)c1ccc(NC(=O)C2CCCO2)cc1 (stereo not shown) : ____
Solution: 91.6

====

- Experimental details: in vitro
- Assay setup: human, hela cells, % viability
viability at 28.5 h, 10 µM: recorded values
Response body: numeric value in %, unit text excluded.

Study these solved cases before continuing.
{"Compound": "COC(=O)c1sc(NC(=O)C2CCCO2)c(C(=O)OC)c1C (centres unmarked)", "viability at 28.5 h, 10 µM [%]": 88}
{"Compound": "CC(=O)C1=C(O)C(=O)N(CCN2CCOCC2)C1c1cccc([N+](=O)[O-])c1 (centres unmarked)", "viability at 28.5 h, 10 µM [%]": 98}
{"Compound": "CC(C)(C)OC(=O)N1CCN(C(=O)N[C@@H](Cc2ccccc2)C(=O)O)CC1", "viability at 28.5 h, 10 µM [%]": 113}

Problem: Recorded viability at 28.5 h, 10 µM for CCOC(=O)CNc1ccc(C(F)(F)F)cc1 , please?
Solution: 94.4

Problem: What does the record list as viability at 28.5 h, 10 µM for Cc1cc(C)c2cc(CN(CCO)Cc3nnnn3CC3CCCO3)c(=O)[nH]c2c1 (centres unmarked) ?
Solution: 80

Problem: Dear colleague, I am looking for the recorded viability at 28.5 h, 10 µM of the following compound: NC(=O)C1CCN(Cc2cc3c(cc2[N+](=O)[O-])OCO3)CC1
Solution: 91.7
